Source of measurements: paper PMC8693849

Test system: P. phaseolicola (GSPB 2828)
MEASUREMENT_NOTES: Agar diffusion method, zone of inhibition
Assay type: cell-based, Pseudomonas phaseolicola
CONDITION: Pseudomonas, 24 h, read-out: Diameter of zone inhibition
QUANTITY_KIND: zone of inhibition at 15 µg/mL (mm)

> print(dat)
                                   compound                   quantity.kind  measured.result
1  N#Cc1c(-c2ccc(Cl)cc2)nc2n(c1=O)NC(c1ccccc1O)N2C(Cc1c[nH]c2ccccc12)C(=O)O (centres unmarked)  zone of inhibition at 15 µg/mL               22
2  CC(=O)C1=C(C)N2NC(c3ccccc3O)N(C(Cc3c[nH]c4ccccc34)C(=O)O)C2=NC1c1ccc(Cl)cc1 (centres unmarked)  zone of inhibition at 15 µg/mL               23
3  CC(C(=O)O)N1C2=NC(c3ccc(Cl)cc3)c3c([nH]c(=O)[nH]c3=O)N2NC1(C)c1ccccc1O (centres unmarked)  zone of inhibition at 15 µg/mL               30
4  CCOC(=O)C1=C(C)N2NC(C)(c3ccccc3O)N(C(Cc3c[nH]c4ccccc34)C(=O)O)C2=NC1c1ccc(Cl)cc1 (centres unmarked)  zone of inhibition at 15 µg/mL               23
5  O=C(N[C@H](CO)[C@H](O)c1ccc([N+](=O)[O-])cc1)C(Cl)Cl [Chloramphenicol, reference compound]  zone of inhibition at 15 µg/mL               25
6  CC(=O)C1=C(C)N2NC(C)(c3ccccc3O)N(C(Cc3c[nH]c4ccccc34)C(=O)O)C2=NC1c1ccc(Cl)cc1 (centres unmarked)  zone of inhibition at 15 µg/mL               22
7  CC(C(=O)O)N1c2nc(-c3ccc(Cl)cc3)c(C#N)c(=O)n2NC1c1ccccc1O (centres unmarked)  zone of inhibition at 15 µg/mL               30
8  CC(C(=O)O)N1C2=NC(c3ccc(Cl)cc3)C3=C(CCCC3=O)N2NC1(C)c1ccccc1O (centres unmarked)  zone of inhibition at 15 µg/mL               29

----------
System: P. phaseolicola (GSPB 2828)
MEASUREMENT_NOTES: Agar diffusion method, zone of inhibition
Assay type: cell-based, Pseudomonas phaseolicola
CONDITION: Pseudomonas, 24 h, read-out: Diameter of zone inhibition
# binarize zone of inhibition at 10 µg/mL: threshold 20 mm inclusive, high side MET, low side NOT MET

> print(dat)
                                   compound  category
1  O=C(N[C@H](CO)[C@H](O)c1ccc([N+](=O)[O-])cc1)C(Cl)Cl [Chloramphenicol, reference compound]       MET
2  CC1(c2ccccc2O)Nn2c(nc(-c3ccc(Cl)cc3)c(C#N)c2=O)N1C(Cc1c[nH]c2ccccc12)C(=O)O (stereo not drawn) [Compound 9d]   NOT MET
3  CCOC(=O)C1=C(C)N2NC(c3ccccc3O)N(C(Cc3c[nH]c4ccccc34)C(=O)O)C2=NC1c1ccc(Cl)cc1 (stereo not drawn) [Compound 3c]   NOT MET
4  CC(C(=O)O)N1c2nc(-c3ccc(Cl)cc3)c(C#N)c(=O)n2NC1(C)c1ccccc1O (stereo not drawn) [Compound 9b]   NOT MET
5  CCOC(=O)C1=C(C)N2NC(C)(c3ccccc3O)N(C(Cc3c[nH]c4ccccc34)C(=O)O)C2=NC1c1ccc(Cl)cc1 (stereo not drawn) [Compound 3d]   NOT MET
6  CC(=O)C1=C(C)N2NC(C)(c3ccccc3O)N(C(C)C(=O)O)C2=NC1c1ccc(Cl)cc1 (stereo not drawn) [Compound 2b]   NOT MET
